Reference source: ChEMBL document CHEMBL3885861

Field: KIDNEY_R. Provide a value for each of the compounds that follow.
Species: Rattus norvegicus
assayProcedure: Open TG-GATES - Regimen: Single
Format: toxicity, organism-based, Sprague-Dawley
Set-up: regimen Single, gender Male, age 6 weeks
particulars: in vivo, po, 0 mg/kg, 6 h, tissue Kidney, route gavage, dose level Control
Please reply with the bare figure in g and do not write the unit itself.

Kindly indicate its recorded KIDNEY_R. Item: O=C(O)COc1nn(Cc2ccccc2)c2ccccc12 1

Kindly indicate its recorded KIDNEY_R. Item: CC(=O)N1CCN(c2ccc(OCC3COC(Cn4ccnc4)(c4ccc(Cl)cc4Cl)O3)cc2)CC1 (configuration not stated) 1

Kindly indicate its recorded KIDNEY_R. Item: CCN(CC)N=O 1

Kindly indicate its recorded KIDNEY_R. Item: CC[C@@H](CO)NCCN[C@@H](CC)CO 1

Kindly indicate its recorded KIDNEY_R. Item: CC(C)Cc1ccc(C(C)C(=O)O)cc1 (configuration not stated) 0.9

Kindly indicate its recorded KIDNEY_R. Item: CC(CCc1ccccc1)NCC(O)c1ccc(O)c(C(N)=O)c1 (configuration not stated) 1

Kindly indicate its recorded KIDNEY_R. Item: CC(=O)Nc1ccc2c(c1)Cc1ccccc1-2 1
